- Assay Text: Cellular toxicity against normal fibroblasts WI-38 (MTT)
- Format: cell-based
- Run Conditions: human
Readout Label: CC50 (µM)

* COc1cccc2c1C(=O)c1c(O)c3c(c(O)c1C2=O)C[C@@](O)(C(=O)CO)C[C@@H]3O[C@H]1C[C@H](N)[C@H](O)[C@H](C)O1 [Doxorubicin, reference compound] | 26.2
* COc1ccc(Cc2nccc3cc(OC)c(OC)cc23)cc1OC | 36.8
* Cc1cc(O)c2c(c1)C(=O)c1cccc(O)c1C2=O | 48.1
* Cc1cc(O)c2c(c1)C(=O)c1cc(O)cc(O)c1C2=O | 49.2

----------
- Assay Text: Cellular toxicity against normal fibroblasts WI-38 (MTT)
- Type: cell-based
- Run Conditions: human; WI-38, 1 to 50 µM overnight, MTT; read-out: CC50
Readout Label: CC50 (µM)

- O=C1c2ccccc2C(=O)c2c1ccc(O)c2O: 25.9

----------
- Assayed System: E. coli DAla:D-Ala ligase (Ddl-B) (Escherichia coli, UniProt P07862)
- Construct: purchased ProFoldin DDA100KE
- Assay Text: Ddl-B enzymatic activity assay (inorganic phosphate, absorbance 650 nm)
- Format: biochemical
Readout Label: Ddl-B inhibition in words

* Cc1cc(O)c2c(c1)C(=O)c1cccc(O)c1C2=O [Chrysophanol] | more potent
* CC(C)C1=CC2=CC[C@@H]3[C@](C)(CCC[C@@]3(C)C(=O)O)[C@H]2CC1 [Abietic acid] | inactive
* O=C1c2ccccc2C(=O)c2ccccc21 [Anthraquinone] | inactive
* COc1cc(O)c2c(c1)C(=O)c1cc(C)cc(O)c1C2=O [Physcion] | more potent

----------
- Assayed System: E. coli DAla:D-Ala ligase (Ddl-B) (Escherichia coli, UniProt P07862)
- Construct: purchased ProFoldin DDA100KE
- Assay Text: Ddl-B enzymatic activity assay (inorganic phosphate, absorbance 650 nm)
- Assay type: biochemical
pIC50: −log10 of the molar value.
This listing pairs compounds with measured pIC50.
Readout Label: pIC50

* Cc1cc(O)c2c(c1)C(=O)c1cccc(O)c1C2=O | 3.63
* O=C(O)c1cc(O)c2c(c1)C(=O)c1cccc(O)c1C2=O | 3.55

----------
- Assayed System: E. coli gyrase B43 domain (Gyr-B) (Escherichia coli, UniProt P0AES6)
Readout Label: log10 of Ki (log10 of the value in µM)

- Cc1cc(O)c2c(c1)C(=O)c1cccc(O)c1C2=O: -0.08
- O=C1c2ccccc2C(=O)c2c1ccc(O)c2O: 1.02
- O=C1c2c(O)cccc2C([C@@H]2O[C@H](CO)[C@@H](O)[C@H](O)[C@H]2O)c2cc(CO)cc(O)c21 (stereo partly drawn): 1.02
- Cc1cc(O)c2c(c1)C(=O)c1cc(O)cc(O)c1C2=O: -0.66
- O=C1c2cccc(O)c2C(=O)c2cccc(O)c21: 0.61
- O=C1c2ccccc2C(=O)c2c(O)ccc(O)c21: 1.25
- O=C(O)c1cc(O)c2c(c1)C(=O)c1cccc(O)c1C2=O: 0.87
- COc1cc(O)c2c(c1)C(=O)c1cc(C)cc(O)c1C2=O: 0.82
- CC(C)C1=CC2=CC[C@@H]3[C@](C)(CCC[C@@]3(C)C(=O)O)[C@H]2CC1: -0.11

----------
- Assayed System: E. coli DAla:D-Ala ligase (Ddl-B) (Escherichia coli, UniProt P07862)
- Construct: purchased ProFoldin DDA100KE
- Assay Text: Ddl-B enzymatic activity assay (inorganic phosphate, absorbance 650 nm)
- Type: biochemical
- Run Conditions: 10-1000 µM tested; read-out: IC50 Ddl-B
I'd appreciate it if you marked entries t when IC50 is lower than 500 µM and f when it is not.

• COc1cc(O)c2c(c1)C(=O)c1cc(C)cc(O)c1C2=O = t
• N[C@@H]1CON=C1O [D-cycloserine, reference compound] = t
• Cc1cc(O)c2c(c1)C(=O)c1cc(O)cc(O)c1C2=O = t
• O=C1c2c(O)cccc2C([C@@H]2O[C@H](CO)[C@@H](O)[C@H](O)[C@H]2O)c2cc(CO)cc(O)c21 (stereo partly shown) = f
• O=C1c2cccc(O)c2C(=O)c2cccc(O)c21 = t
• O=C1c2ccccc2C(=O)c2c1ccc(O)c2O = t

----------
- System: VRSA (clinical isolate)
- Assay Text: MIC, agar dilution method, VRSA
- Format: cell-based, S. aureus
- Run Conditions: Staphylococcus aureus, VRSA; range 1-64 µg/mL, 37 °C, 18-20 h; read-out: MIC VRSA
- Method: The selected top-scoring hits were evaluated for their antibacterial effect against two clinical multidrug-resistant strains of enterotoxigenic E. coli. Both isolates were isolated as clinical samples from Beni Suef general hospital, Beni Suef, Egypt. […] Minimum inhibitory concentrations for the test compounds were analyzed following the standard agar dilution method using Meuller-Hinton (MH) agar medium against different Gram-negative and positive bacteria (Table 1). […]
Readout Label: MIC

* O=C1c2ccccc2C(=O)c2ccccc21 | 64 µg/mL
* O=C1c2c(O)cccc2C([C@@H]2O[C@H](CO)[C@@H](O)[C@H](O)[C@H]2O)c2cc(CO)cc(O)c21 (stereo partly drawn) | > 64 µg/mL
* O=C1c2cccc(O)c2C(=O)c2cccc(O)c21 | > 64 µg/mL

----------
- System: VRSA (clinical isolate)
- Assay Text: MIC, agar dilution method, VRSA
- Assay type: cell-based, S. aureus
- Run Conditions: Staphylococcus aureus, VRSA; range 1-64 µg/mL, 37 °C, 18-20 h; read-out: MIC VRSA
Readout Label: log10 MIC (log10 of the value in µg/mL)

- COc1cc(O)c2c(c1)C(=O)c1cc(C)cc(O)c1C2=O: 0.30
- CC(C)C1=CC2=CC[C@@H]3[C@](C)(CCC[C@@]3(C)C(=O)O)[C@H]2CC1: 1.20
- Cc1cc(O)c2c(c1)C(=O)c1cccc(O)c1C2=O: 0.60
- O=C1c2ccccc2C(=O)c2c(O)ccc(O)c21: 1.20
- CO[C@@H]1[C@@H](OC(N)=O)[C@@H](O)[C@H](Oc2ccc3c(O)c(NC(=O)c4ccc(O)c(CC=C(C)C)c4)c(=O)oc3c2C)OC1(C)C [Novobiocin, reference compound]: 0.00
- Cc1cc(O)c2c(c1)C(=O)c1cc(O)cc(O)c1C2=O: 0.30
- N[C@@H]1CON=C1O [D-cycloserine, reference compound]: 1.51
- O=C(O)c1cc(O)c2c(c1)C(=O)c1cccc(O)c1C2=O: 0.90

----------
- Assayed System: E. coli gyrase B43 domain (Gyr-B) (Escherichia coli, UniProt P0AES6)
pIC50: −log10 of the molar value.
Please use MET whenever pIC50 is not below 5, and NOT MET whenever it is.

- Cc1cc(O)c2c(c1)C(=O)c1cccc(O)c1C2=O [Chrysophanol]: MET
- CC(C)C1=CC2=CC[C@@H]3[C@](C)(CCC[C@@]3(C)C(=O)O)[C@H]2CC1 [Abietic acid]: MET
- O=C1c2ccccc2C(=O)c2c(O)ccc(O)c21 [Quinizarin]: NOT MET
- O=C1c2cccc(O)c2C(=O)c2cccc(O)c21 [Anthrarufin]: MET
- O=C1c2ccccc2C(=O)c2c1ccc(O)c2O [Alizarin]: NOT MET
- O=C1c2c(O)cccc2C([C@@H]2O[C@H](CO)[C@@H](O)[C@H](O)[C@H]2O)c2cc(CO)cc(O)c21 (some centres unmarked) [Aloin]: NOT MET
- Cc1cc(O)c2c(c1)C(=O)c1cc(O)cc(O)c1C2=O [Emodin]: MET
- O=C1c2ccccc2C(=O)c2ccccc21 [Anthraquinone]: NOT MET
- COc1ccc(Cc2nccc3cc(OC)c(OC)cc23)cc1OC [Papaverine]: NOT MET

----------
- Assayed System: E. coli gyrase B43 domain (Gyr-B) (Escherichia coli, UniProt P0AES6)
- Construct: 20 μL of the enzyme (E. coli gyrase B43 domain; 20 μM concentration); purchased Inspiralis ATPG001
- Assay Text: biochemical
- Type: biochemical
Readout Label: Gyr-B inhibition in words

• O=C1c2ccccc2C(=O)c2c(O)ccc(O)c21 = moderately inhibited
• O=C1c2ccccc2C(=O)c2c1ccc(O)c2O = moderately inhibited

----------
- Assay Text: Cellular toxicity against normal fibroblasts WI-38 (MTT)
- Format: cell-based
- Run Conditions: human, WI-38 normal fibroblast cells; WI-38, 1 to 50 µM overnight, MTT; read-out: CC50
Readout Label: CC50 (µM)

- O=C1c2ccccc2C(=O)c2c(O)ccc(O)c21: 20.1
- O=C1c2cccc(O)c2C(=O)c2cccc(O)c21: 29.7
- O=C1c2c(O)cccc2C([C@@H]2O[C@H](CO)[C@@H](O)[C@H](O)[C@H]2O)c2cc(CO)cc(O)c21 (stereo partly shown): 34.7

----------
- Assayed System: E. coli DAla:D-Ala ligase (Ddl-B) (Escherichia coli)
- Construct: purchased ProFoldin DDA100KE
- Assay Text: Ddl-B enzymatic activity assay (inorganic phosphate, absorbance 650 nm)
- Assay type: biochemical
- Run Conditions: read-out: Ki Ddl-B
pKi: −log10 of the molar value.
Readout Label: pKi

• Cc1cc(O)c2c(c1)C(=O)c1cc(O)cc(O)c1C2=O = 3.99
• O=C1c2cccc(O)c2C(=O)c2cccc(O)c21 = 3.46
• O=C1c2ccccc2C(=O)c2c(O)ccc(O)c21 = 3.64
• N[C@@H]1CON=C1O [D-cycloserine, reference compound] = 3.93
• O=C1c2ccccc2C(=O)c2c1ccc(O)c2O = 3.66
• COc1cc(O)c2c(c1)C(=O)c1cc(C)cc(O)c1C2=O = 3.92
• O=C1c2c(O)cccc2C([C@@H]2O[C@H](CO)[C@@H](O)[C@H](O)[C@H]2O)c2cc(CO)cc(O)c21 (stereo partly shown) = 3.28
